# MEASUREMENT_PROTOCOL: physchem
# STATED_CONDITIONS: aqueous sodium hydroxide solution, pH 12, aqueous buffer

{"SUBSTANCE_SMILES": "Cc1ccc(-c2cc(C(F)(F)F)nn2-c2ccc(S(N)(=O)=O)cc2)cc1", "solubility": "≥ 380 mg/mL"}
